# Test system: E. coli
# assay text: Photoinactivation of bacteria by phenoselenazinium derivatives (E. coli)
# Format: cell-based
# study conditions: 10 μM photosensitiser, 30 min 37° C., 665 nm laser, 3 J/cm^2 (10 mW/cm^2)
measured attribute: Log change in CFU/mL

*Q* Consider the compound shown here: `CCCCCCN(CCCCCC)c1ccc2nc3ccc(N(CCCCCC)CCCCCC)cc3[se+]c2c1` What is its recorded Log change in CFU/mL?
*A* 0.02 (0.13) log CFU/mL

*Q* Consider the compound shown here: `CCCCN(CCCC)c1ccc2nc3ccc(N(CCC)CCC)cc3[se+]c2c1` What is its recorded Log change in CFU/mL?
*A* 6.54 (0.00) log CFU/mL

*Q* Consider the compound shown here: CN(C)c1ccc2nc3ccc(N(C)C)cc3[se+]c2c1.[I-] [Compound A, reference compound] What is its recorded Log change in CFU/mL?
*A* 3.33 (0.01) log CFU/mL

*Q* Consider the compound shown here: `CCCCN(CCCC)c1ccc2nc3ccc(N(CCCC)CCCC)cc3[se+]c2c1` What is its recorded Log change in CFU/mL?
*A* 5.48 (0.34) log CFU/mL

====

# assay text: Partition coefficient log P
# Assay type: physicochemical
# study conditions: 2-octanol/0.1 M aqueous potassium phosphate at pH 7
Provide the recorded logP for the entries that follow.

*Q* Consider the compound shown here: `CCCCCN(CCCCC)c1ccc2nc3ccc(N(CCCCC)CCCCC)cc3[se+]c2c1` What is its recorded logP?
*A* > 2

*Q* Consider the compound shown here: `CCCCN(CCCC)c1ccc2nc3ccc(N(CCC)CCC)cc3[se+]c2c1` What is its recorded logP?
*A* > 2

*Q* Consider the compound shown here: `CCCCN(CCCC)c1ccc2nc3ccc(N(CCCC)CCCC)cc3[se+]c2c1` What is its recorded logP?
*A* > 2

*Q* Consider the compound shown here: `CCCCCCN(CCCCCC)c1ccc2nc3ccc(N(CCCCCC)CCCCCC)cc3[se+]c2c1` What is its recorded logP?
*A* > 2

*Q* Consider the compound shown here: `CCCN(CCC)c1ccc2nc3ccc(N(CCC)CCC)cc3[se+]c2c1` What is its recorded logP?
*A* > 2

*Q* Consider the compound shown here: `CCN(CC)c1ccc2nc3ccc(N(CC)CC)cc3[se+]c2c1` What is its recorded logP?
*A* 1.5

====

# Test system: subcutaneous CaNT tumours
# assay text: Anti-tumour efficacy in vivo (PDT, tumour necrosis)
# Parameters: species or system CBA/gy mice
# study conditions: i.v. dose 1.67 μmol/Kg; drug to light interval 0 h; 60 J/cm^2 660±15 nm; 72 h after illumination
Label Criterion met when % tumour necrosis < 60%; otherwise Criterion not met.

*Q* Determine whether this compound shows % tumour necrosis lower than 60% (ties excluded): CCCN(CCC)c1ccc2nc3ccc(N(CCC)CCC)cc3[se+]c2c1 [Compound 2]
*A* Criterion met

*Q* Determine whether this compound shows % tumour necrosis lower than 60% (ties excluded): CCCCN(CCCC)c1ccc2nc3ccc(N(CCCC)CCCC)cc3[se+]c2c1 [Compound 1]
*A* Criterion not met

*Q* Determine whether this compound shows % tumour necrosis lower than 60% (ties excluded): CCCCCN(CCCCC)c1ccc2nc3ccc(N(CCCCC)CCCCC)cc3[se+]c2c1 [Compound 4]
*A* Criterion met

*Q* Determine whether this compound shows % tumour necrosis lower than 60% (ties excluded): CCCCN(CCCC)c1ccc2nc3ccc(N(CCC)CCC)cc3[se+]c2c1 [Compound 6]
*A* Criterion not met

*Q* Determine whether this compound shows % tumour necrosis lower than 60% (ties excluded): CCN(CC)c1ccc2nc3ccc(N(CC)CC)cc3[se+]c2c1 [Compound 3]
*A* Criterion met

*Q* Determine whether this compound shows % tumour necrosis lower than 60% (ties excluded): CN(C)c1ccc2nc3ccc(N(C)C)cc3[se+]c2c1.[I-] [Compound A, reference compound]
*A* Criterion met

*Q* Determine whether this compound shows % tumour necrosis lower than 60% (ties excluded): CCCCCCN(CCCCCC)c1ccc2nc3ccc(N(CCCCCC)CCCCCC)cc3[se+]c2c1 [Compound 5]
*A* Criterion met

Values compiled from patent US7407948B2.
